targetDesc: PDE5 (Homo sapiens)
Construct: purchased Sigma-Aldrich, St. Louis, United States
protocolNotes: Phosphodiesterase assay: inhibition of cGMP hydrolysis by recombinant PDE5
Type: biochemical
conditionContext: 28°C; Cheng-Prusoff
Description: The study drugs were tested upon their ability to hinder cAMP and cGMP hydrolysis by inhibiting PDE3 and PDE5 respectively. Either 5 µM cAMP or cGMP (Sigma-Aldrich, St. Louis, MO, United States) were used as substrates for the enzymes. […] IC50 and Ki values were calculated for each of the drugs, both for their ability to inhibit cAMP- and cGMP- efflux, as well as PDE3 and PDE5 activity. […]
resultType: Ki (µM)
Note: unit µM is implicit; provide only the numeric part.

**Query** Query (compound): C[C@@H]1CC(=O)NN=C1c1ccc(NN=C(C#N)C#N)cc1 [Levosimendan] ; field requested: Ki
**Result** 46.4

**Query** Query (compound): Nc1cc(-c2ccncc2)c[nH]c1=O [Amrinone] ; field requested: Ki
**Result** 24.1

---

targetDesc: ABCC4 (Homo sapiens)
protocolNotes: biochemical
Format: biochemical
conditionContext: 37°C; Table 3; read-out: ABCC5 Ki (Table 3)
resultType: Ki

**Query** # query: Ki | item C[C@@H]1CC(=O)NN=C1c1ccc(NN=C(C#N)C#N)cc1 [Levosimendan] | system: ABCC4 (Homo sapiens)
**Result** 5.71 µM

---

targetDesc: PDE5 (Homo sapiens, UniProt O76074)
Construct: purchased Sigma-Aldrich, St. Louis, United States
protocolNotes: Phosphodiesterase assay: inhibition of cGMP hydrolysis by recombinant PDE5
Format: biochemical
conditionContext: 34°C; Cheng-Prusoff
Ki listing for selected compounds.
Note: unit µM is implicit; provide only the numeric part.

**Query** Query (compound): "C[C@@H]1CC(=O)NN=C1c1ccc(NN=C(C#N)C#N)cc1" ; field requested: Ki
**Result** 38

API: the following record is the query input.
**Query** Query (compound): "Nc1cc(-c2ccncc2)c[nH]c1=O" ; field requested: Ki
**Result** 23.3

---

targetDesc: ABCC4 (Homo sapiens)
protocolNotes: biochemical
Type: biochemical
conditionContext: 37°C; Table 3; read-out: ABCC5 IC50 (Table 3)
resultType: IC50 (µM)
Note: unit µM is implicit; provide only the numeric part.

**Query** Query (molecule): "C[C@@H]1CC(=O)NN=C1c1ccc(NN=C(C#N)C#N)cc1" ; field requested: IC50
**Result** 9.41

---

targetDesc: ABCC4 (Homo sapiens, UniProt O15439)
Sequence (O15439 1-1325): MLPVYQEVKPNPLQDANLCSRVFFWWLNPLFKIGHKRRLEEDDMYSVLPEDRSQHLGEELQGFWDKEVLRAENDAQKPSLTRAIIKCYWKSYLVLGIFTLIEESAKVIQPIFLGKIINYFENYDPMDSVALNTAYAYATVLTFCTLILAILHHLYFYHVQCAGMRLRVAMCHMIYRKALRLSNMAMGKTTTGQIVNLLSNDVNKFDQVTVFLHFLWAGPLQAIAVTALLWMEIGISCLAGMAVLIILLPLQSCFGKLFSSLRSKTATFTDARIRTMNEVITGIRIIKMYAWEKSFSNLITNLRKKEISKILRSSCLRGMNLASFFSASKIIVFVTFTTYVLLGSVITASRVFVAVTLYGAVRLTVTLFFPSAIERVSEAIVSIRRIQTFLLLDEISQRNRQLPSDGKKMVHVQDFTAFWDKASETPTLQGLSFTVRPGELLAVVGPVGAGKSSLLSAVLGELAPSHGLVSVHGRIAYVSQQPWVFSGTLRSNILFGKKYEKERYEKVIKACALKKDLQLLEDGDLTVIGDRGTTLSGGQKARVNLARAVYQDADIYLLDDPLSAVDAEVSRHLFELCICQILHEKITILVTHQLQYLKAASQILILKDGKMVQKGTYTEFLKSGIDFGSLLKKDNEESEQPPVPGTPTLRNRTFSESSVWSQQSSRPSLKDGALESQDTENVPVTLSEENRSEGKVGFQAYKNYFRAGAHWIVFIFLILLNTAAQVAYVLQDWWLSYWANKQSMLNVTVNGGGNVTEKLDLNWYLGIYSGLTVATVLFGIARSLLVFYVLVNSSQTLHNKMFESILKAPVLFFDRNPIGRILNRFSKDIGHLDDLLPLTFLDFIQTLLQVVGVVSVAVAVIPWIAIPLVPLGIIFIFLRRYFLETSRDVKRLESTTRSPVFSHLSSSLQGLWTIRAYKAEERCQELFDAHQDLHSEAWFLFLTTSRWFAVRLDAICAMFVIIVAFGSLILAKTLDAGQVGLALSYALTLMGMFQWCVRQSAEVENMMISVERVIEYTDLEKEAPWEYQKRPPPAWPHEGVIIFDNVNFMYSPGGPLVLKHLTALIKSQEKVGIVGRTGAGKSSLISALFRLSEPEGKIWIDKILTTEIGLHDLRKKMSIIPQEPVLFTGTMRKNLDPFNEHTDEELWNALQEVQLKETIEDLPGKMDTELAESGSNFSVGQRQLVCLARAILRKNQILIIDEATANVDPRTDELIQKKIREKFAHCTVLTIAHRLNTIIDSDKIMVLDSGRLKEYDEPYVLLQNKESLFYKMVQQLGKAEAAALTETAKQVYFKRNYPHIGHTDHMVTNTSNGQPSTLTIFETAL
protocolNotes: biochemical
Format: biochemical
conditionContext: 37°C; cAMP-efflux, inside-out vesicles, 20 µM 3H-cAMP, 60 min; read-out: ABCC4 IC50
resultType: IC50

**Query** Query (molecule): "Nc1cc(-c2ccncc2)c[nH]c1=O" ; field requested: IC50
**Result** 4.65 µM

---

targetDesc: ABCC4 (Homo sapiens)
protocolNotes: biochemical
Type: biochemical
conditionContext: ABCC4 IC50, 32°C; cAMP-efflux, inside-out vesicles, 20 µM 3H-cAMP, 60 min
resultType: IC50 (µM)
Note: unit µM is implicit; provide only the numeric part.

**Query** # query: IC50 | item "Cc1[nH]c(=O)c(C#N)cc1-c1ccncc1" | system: ABCC4 (Homo sapiens)
**Result** 32.9

---

targetDesc: ABCC4 (Homo sapiens, UniProt O15439)
Sequence (O15439 1-1325): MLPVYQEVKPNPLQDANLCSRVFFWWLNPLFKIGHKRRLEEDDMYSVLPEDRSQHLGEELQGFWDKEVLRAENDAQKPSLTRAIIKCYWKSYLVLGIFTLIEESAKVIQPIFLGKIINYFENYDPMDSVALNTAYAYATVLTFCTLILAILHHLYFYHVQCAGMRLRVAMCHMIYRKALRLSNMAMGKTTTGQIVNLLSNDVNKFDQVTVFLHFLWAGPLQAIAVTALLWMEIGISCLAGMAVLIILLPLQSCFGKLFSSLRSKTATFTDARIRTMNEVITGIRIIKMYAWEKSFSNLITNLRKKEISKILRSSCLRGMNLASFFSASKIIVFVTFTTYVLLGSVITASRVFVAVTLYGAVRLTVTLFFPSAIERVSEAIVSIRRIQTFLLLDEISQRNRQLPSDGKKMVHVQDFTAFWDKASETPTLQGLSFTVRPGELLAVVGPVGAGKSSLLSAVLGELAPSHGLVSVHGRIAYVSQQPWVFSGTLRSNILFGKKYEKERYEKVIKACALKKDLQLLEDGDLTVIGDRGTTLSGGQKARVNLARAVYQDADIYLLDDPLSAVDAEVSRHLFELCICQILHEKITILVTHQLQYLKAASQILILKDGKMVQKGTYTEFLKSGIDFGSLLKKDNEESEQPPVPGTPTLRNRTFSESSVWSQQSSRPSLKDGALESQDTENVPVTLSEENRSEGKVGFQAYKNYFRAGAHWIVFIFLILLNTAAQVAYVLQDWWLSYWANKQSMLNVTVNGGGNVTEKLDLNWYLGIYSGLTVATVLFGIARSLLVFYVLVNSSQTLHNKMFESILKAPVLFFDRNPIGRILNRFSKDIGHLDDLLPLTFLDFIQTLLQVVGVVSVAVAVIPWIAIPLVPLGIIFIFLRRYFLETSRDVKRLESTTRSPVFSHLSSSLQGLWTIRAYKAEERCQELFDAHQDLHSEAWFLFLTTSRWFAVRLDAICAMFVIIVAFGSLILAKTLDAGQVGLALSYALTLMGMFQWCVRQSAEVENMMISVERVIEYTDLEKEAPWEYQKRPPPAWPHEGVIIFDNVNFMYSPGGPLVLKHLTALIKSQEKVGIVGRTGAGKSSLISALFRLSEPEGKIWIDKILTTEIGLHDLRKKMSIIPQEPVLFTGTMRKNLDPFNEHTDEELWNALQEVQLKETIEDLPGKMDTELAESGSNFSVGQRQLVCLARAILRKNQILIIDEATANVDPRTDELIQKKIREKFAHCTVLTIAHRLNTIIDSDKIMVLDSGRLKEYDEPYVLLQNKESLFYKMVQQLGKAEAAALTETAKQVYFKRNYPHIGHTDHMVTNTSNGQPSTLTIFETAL
protocolNotes: biochemical
Format: biochemical
conditionContext: ABCC4 Ki, 34°C; cAMP-efflux, inside-out vesicles
resultType: Ki
I'd appreciate it if you included the unit after the number.

**Query** Query (compound): "Cc1[nH]c(=O)c(C#N)cc1-c1ccncc1" ; field requested: Ki
**Result** 40.6 µM
